experiment: Pharmacokinetic study in rats (intravenous or gavage, plasma LC-MS/MS); assay type: in vivo; conditions: male, rat, plasma; SD rats, iv, 1 mg/kg
endpoint_name: AUC(0-t)

Entry under test: O=C(O)c1ccc2nc(CC3CC=C(c4cccc(OCc5ccc(Cl)c6cc(F)oc56)n4)CC3)n(C[C@@H]3CCO3)c2c1 (some centres unmarked) . Its AUC(0-t) was 1240 ng·h/mL

Entry under test: O=C(O)c1ccc2nc(CC3CC=C(c4cccc(OCc5ccc(Cl)c6cc(Cl)oc56)n4)CC3)n(C[C@@H]3CCO3)c2c1 (some centres unmarked) . Its AUC(0-t) was 1250 ng·h/mL

---

experiment: Pharmacokinetic study in rats (intravenous or gavage, plasma LC-MS/MS); type: in vivo; conditions: rat, plasma; SD rats, po, 5 mg/kg
endpoint_name: AUC(0-t) (ng·h/mL)
Report as a plain number; the unit ng·h/mL is understood.

Entry under test: O=C(O)c1ccc2nc(C[C@H]3CC[C@H](c4cccc(OCc5ccc(Cl)c6cc(Cl)oc56)n4)CC3)n(C[C@@H]3CCO3)c2c1 [Compound 38B] . Its AUC(0-t) was 4130

Entry under test: O=C(O)c1ccc2nc(C[C@H]3CC[C@H](c4cccc(OCc5ccc(Cl)c6cc(F)oc56)n4)CC3)n(C[C@@H]3CCO3)c2c1 [Compound 27B] . Its AUC(0-t) was 3670

---

Give half-life at 1 µM for every item shown.
test: Human liver microsome stability test; format: in vitro ADME; conditions: pH 7.4; human liver microsomes 0.5 mg/mL, 1 µM compound, NADPH, 37 °C

Entry under test: N#CCC1(Cn2c(CC3CC=C(c4cccc(OCc5ccc(Cl)c6cc(F)oc56)n4)CC3)nc3ccc(C(=O)O)cc32)CC1 (centres unmarked) . Its half-life at 1 µM was > 3.08 h

Entry under test: O=C(O)c1ccc2nc(C[C@H]3CC[C@H](c4cccc(OCc5ccc(Cl)c6cc(F)oc56)n4)CC3)n(C[C@@H]3CCO3)c2c1 [Compound 27B] . Its half-life at 1 µM was 1.7 h

Entry under test: O=C(O)c1ccc2nc(CC3CC=C(c4cccc(OCc5ccc(Cl)c6cc(F)oc56)n4)CC3)n(C[C@@H]3CCO3)c2n1 (some centres unmarked) . Its half-life at 1 µM was 1.86 h

Entry under test: O=C(O)c1ccc2nc(CC3CC=C(c4cccc(OCc5ccc(Cl)c6cc(F)oc56)n4)CC3)n(C[C@@H]3CCO3)c2c1 (some centres unmarked) . Its half-life at 1 µM was 2.27 h

Entry under test: O=C(O)c1ccc2nc(CC3CC=C(c4ncc(F)c(OCc5ccc(Cl)c6cc(F)oc56)n4)CC3)n(C[C@@H]3CCO3)c2n1 (some centres unmarked) . Its half-life at 1 µM was > 3.08 h

Entry under test: O=C(O)c1ccc2nc(CC3CC=C(c4ncc(F)c(OCc5ccc(Cl)c6cc(F)oc56)n4)CC3)n(C[C@@H]3CCO3)c2c1 (some centres unmarked) . Its half-life at 1 µM was 2.77 h

Entry under test: O=C(O)c1cc2c(nc(CC3CC=C(c4cccc(OCc5ccc(Cl)c6cc(F)oc56)n4)CC3)n2C[C@@H]2CCO2)s1 (some centres unmarked) . Its half-life at 1 µM was 3 h

Entry under test: O=C(O)c1ccc2nc(CC3CC=C(c4ncc(F)c(OCc5ccc(Cl)c6ccoc56)n4)CC3)n(C[C@@H]3CCO3)c2c1 (some centres unmarked) . Its half-life at 1 µM was 1.84 h
